experimental protocol: chemical genetic growth profiling, strain panel (AID 1159580);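 note: tested at 20 µM; growth read once vehicle control cultures reached saturation at 30 °C; 1 = growth at the plate median or of vehicle wells; lower values mean less growth of the strain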
assay setup: S. cerevisiae deletion strains, growth OD, locus YOL136C, strain PFK27, stronger effect = lower value
About 2,000 (36%) of roughly 5,500 compounds were called active. About 18% were inconclusive and are not listed. The list shows a part of the results.
endpoint label: normalized growth

[
  {
    "input smiles": "Cc1cc(Cl)ccc1NC(=S)NNC(=S)Nc1ccc(F)cc1",
    "normalized growth": "0.916 (inactive)"
  },
  {
    "input smiles": "CC(=O)c1sc(SCCS(=O)(=O)c2ccc(C)cc2)c2c1CC(C)(C)CC2=O",
    "normalized growth": "0.896 (inactive)"
  },
  {
    "input smiles": "CCCc1c(C(=O)NNc2cccc(Cl)c2)cnn1-c1ccccc1",
    "normalized growth": "0.897 (inactive)"
  },
  {
    "input smiles": "CCCc1c(C(=O)Sc2ccccn2)cnn1-c1ccc(Cl)cc1",
    "normalized growth": "0.878 (inactive)"
  },
  {
    "input smiles": "COC(=O)C1=C(C)NC(C)=C(C(=O)OC)C1c1ccc(Cl)cc1Cl",
    "normalized growth": "0.918 (inactive)"
  }
]

Return the recorded normalized growth value; entry: CCOC(=O)/C(=N/Nc1c(Cl)cccc1Cl)c1csc(N)n1
0.893 (inactive)

Return the recorded normalized growth value; entry: O=C(NCCSCc1cccc(C(F)(F)F)c1)c1ccc(Cl)cc1
0.896 (inactive)

====

experimental protocol: chemical genetic growth profiling, strain panel (AID 1159580)
assay setup: S. cerevisiae deletion strains, growth OD, locus YCR088W, strain abp1, stronger effect = lower value
Screen size: about 5,500 compounds; about 2,000 (36%) were called active. Not shown: some 18% with an inconclusive outcome. Some of the results follow.
Output 1 for records whose normalized growth is lower than 1, 0 for records at or above 1.

The examples below pair each entry with its known result.
[
  {
    "molecule": "OC[C@@H]1CCCN2CCCC[C@H]12",
    "group label": 0
  },
  {
    "molecule": "O=C(O)c1ccccc1Nc1cccc(C(F)(F)F)c1",
    "group label": 1
  },
  {
    "molecule": "C=C(C)C1CC=C(CO)CC1 (stereo unspecified)",
    "group label": 1
  },
  {
    "molecule": "CCN(CC)CCNC(=O)c1cc(S(C)(=O)=O)ccc1OC",
    "group label": 1
  },
  {
    "molecule": "CC1(C)CCCC2(C)C3C1[C@@H](O)C2(C)C[C@H]3O (stereo partly specified)",
    "group label": 0
  },
  {
    "molecule": "CN(C)CCOc1ccc(/C(=C(/CCCl)c2ccccc2)c2ccccc2)cc1",
    "group label": 1
  },
  {
    "molecule": "Cc1c(O)c(O)cc2c1CC=C1[C@@]2(C)CC[C@@]2(C)C3C[C@](C)(C(=O)O)CC[C@]3(C)CC[C@]12C (stereo partly specified)",
    "group label": 1
  },
  {
    "molecule": "Oc1c(I)cc(I)c2cccnc12",
    "group label": 1
  }
]

Quick check: normalized growth of O=C(O)/C=C/C=C/c1ccccc1 under 1?
1

Quick check: normalized growth of CCOP(=S)(OCC)SCn1c(=O)oc2cc(Cl)ccc21 under 1?
1

Quick check: normalized growth of C1CCN2CC3CC(CN4CCCCC34)C2C1 (stereo unspecified) under 1?
0

Quick check: normalized growth of O=C1C=CC2=C3c4cc(O)c(O)cc4CC3(O)COC2=C1O (stereo unspecified) under 1?
0

Quick check: normalized growth of O[N+]1=CC=CCC1=S.On1ccccc1=S.[Zn] under 1?
1

Quick check: normalized growth of Cc1occc(=O)c1O under 1?
1

====

Entries annotated with measured normalized growth
experimental protocol: chemical genetic growth profiling, strain panel (AID 1159580)
assay setup: S. cerevisiae deletion strains, growth OD, locus YLR320W, strain mms22, stronger effect = lower value
In all, about 5,500 compounds went through this assay and about 2,000 (36%) were called active. Not shown: some 18% with an inconclusive outcome. This is one part of the list.
Give the figure by itself; no unit, no explanation.

For orientation, consider the following solved cases.
[
  {
    "compound": "CC(C)(C)NC[C@@H](O)COc1nsnc1N1CCOCC1",
    "normalized growth": 0.997
  },
  {
    "compound": "C/C=C/c1ccc2c(c1)OCO2",
    "normalized growth": 1.01
  },
  {
    "compound": "Cc1ccsc1/C=C/C1=NCCCN1C",
    "normalized growth": 0.991
  },
  {
    "compound": "O=c1[nH]c(=O)n(C2C[C@@H](O)[C@@H](CO)O2)cc1F (stereo partly drawn)",
    "normalized growth": 1.01
  },
  {
    "compound": "O=C(NC(=O)c1c(F)cccc1F)Nc1ccc(Cl)cc1",
    "normalized growth": 0.988
  }
]

Return the recorded normalized growth value; entry: Nc1ccc(S(=O)(=O)Nc2ccccn2)cc1
0.985

Return the recorded normalized growth value; entry: O=C(OC1Cc2c(O)cc(O)cc2OC1c1cc(O)c(O)c(O)c1-c1c(C2Oc3cc(O)cc(O)c3CC2OC(=O)c2cc(O)c(O)c(O)c2)cc(O)c(O)c1O)c1cc(O)c(O)c(O)c1 (stereo not drawn)
0.981

Return the recorded normalized growth value; entry: CC(C)(C)NCC(O)c1ccccc1Cl (stereo not drawn)
0.981

====

experimental protocol: chemical genetic growth profiling, strain panel (AID 1159580);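 note: tested at 20 µM; growth read once vehicle control cultures reached saturation at 30 °C; 1 = growth at the plate median or of vehicle wells; lower values mean less growth of the strain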
assay setup: S. cerevisiae deletion strains, growth OD, locus YPL256C, strain CLN2
In all, about 5,500 compounds went through this assay and about 2,000 (36%) were called active. About 18% were inconclusive and are not listed. Rule as the data show it: active = normalized growth mostly below about 0.91 (no sharp cut-off); inconclusive = no clear call, values can overlap the other calls; inactive = mostly above about 0.92. Some of the results follow.
Outcome field: choose from Y = active, N = inactive

[
  {
    "compound": "COc1ccc(C(=O)CSC2=NCCc3ccccc32)cc1",
    "group label": "N"
  },
  {
    "compound": "O=[N+]([O-])c1ccccc1CS(=O)(=O)c1nc2ccccc2s1",
    "group label": "N"
  },
  {
    "compound": "O=C(NCCSCc1cccc(C(F)(F)F)c1)c1ccc(Cl)cc1",
    "group label": "Y"
  },
  {
    "compound": "Cc1ccc(/C(=C\\CN2CCCC2)c2ccccn2)cc1",
    "group label": "N"
  },
  {
    "compound": "Nc1ccc(S(=O)(=O)Nc2ccccn2)cc1",
    "group label": "N"
  }
]

// next entry
For O=C(c1ccccc1)c1cc(Cl)ccc1NC(=S)Nc1ccc(F)cc1 , which call appears in the assay record?
N

====

experimental protocol: chemical genetic growth profiling, strain panel (AID 1159580);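 note: tested at 20 µM; growth read once vehicle control cultures reached saturation at 30 °C; 1 = growth at the plate median or of vehicle wells; lower values mean less growth of the strain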
assay setup: S. cerevisiae deletion strains, growth OD, locus YOR184W, strain ser1
The whole screen tested about 5,500 compounds, of which about 2,000 (36%) were called active. Another 18% or so got no clear call; they are omitted. Rule as the data show it: active = normalized growth mostly below about 0.91 (no sharp cut-off); inconclusive = no clear call, values can overlap the other calls; inactive = mostly above about 0.92. Some of the results follow.
Outcome field: choose from active, inactive

The examples below pair each entry with its known result.
[
  {
    "molecule": "CCCc1occc(=O)c1/C=C/O",
    "group label": "inactive"
  },
  {
    "molecule": "C=CC(C)(O)CC/C=C(\\C)CCC=C(C)C (stereo not drawn)",
    "group label": "inactive"
  },
  {
    "molecule": "CC(=O)NCCCCCC(=O)O",
    "group label": "inactive"
  },
  {
    "molecule": "COc1cc(C(=O)NCc2ccc(OCCN(C)C)cc2)cc(OC)c1OC",
    "group label": "inactive"
  },
  {
    "molecule": "CCCC(C)C1(CC)C(=O)N=C(S)NC1=O (stereo not drawn)",
    "group label": "active"
  }
]

// next entry
For OC[C@@H]1CCCN2CCCC[C@H]12 , which call appears in the assay record?
inactive

====

experimental protocol: chemical genetic growth profiling, strain panel (AID 1159580);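 note: tested at 20 µM; growth read once vehicle control cultures reached saturation at 30 °C; 1 = growth at the plate median or of vehicle wells; lower values mean less growth of the strain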
assay setup: S. cerevisiae deletion strains, growth OD, locus YDL040C, strain nat1
The whole screen tested about 5,500 compounds, of which about 2,000 (36%) were called active. About 18% were inconclusive and are not listed. Rule as the data show it: active = normalized growth mostly below about 0.91 (no sharp cut-off); inconclusive = no clear call, values can overlap the other calls; inactive = mostly above about 0.92. The list shows a part of the results.
Outcome field: choose from active, inactive

The examples below pair each entry with its known result.
[
  {
    "compound": "CC(C)NCC(O)c1ccc(O)c(O)c1 (stereo not given)",
    "group label": "inactive"
  },
  {
    "compound": "Cc1occc(=O)c1O",
    "group label": "inactive"
  },
  {
    "compound": "Nc1ccc(C(=O)NCC(=O)O)cc1",
    "group label": "inactive"
  },
  {
    "compound": "OC[C@@H](O)[C@@H](O[C@@H]1O[C@H](CO)[C@@H](O)[C@H](O)[C@H]1O)[C@H](O)[C@@H](O)CO",
    "group label": "inactive"
  },
  {
    "compound": "COc1c2c(cc3c1OCO3)CCN(C)C2",
    "group label": "inactive"
  },
  {
    "compound": "NC[C@H](O)c1ccc(O)c(O)c1",
    "group label": "inactive"
  },
  {
    "compound": "Oc1c(I)cc(Cl)c2cccnc12",
    "group label": "active"
  },
  {
    "compound": "Nc1ncnc2c1ncn2C1O[C@H](COP(=O)(O)O)[C@@H](O)[C@H]1O (stereo not given in full)",
    "group label": "inactive"
  }
]

For CNC[C@@H](O)c1ccc(O)c(O)c1 , which call appears in the assay record?
inactive

For O=c1[nH]c(=O)n(C2C[C@@H](O)[C@@H](CO)O2)cc1F (stereo not given in full) , which call appears in the assay record?
inactive
